# Target or system: hPPARgamma (Homo sapiens, UniProt P37231)
# Construct: expressed in transfected cells; host or cells: COS-7 (monkey kidney fibroblasts)
# Sequence (P37231 238-503 limits assumed): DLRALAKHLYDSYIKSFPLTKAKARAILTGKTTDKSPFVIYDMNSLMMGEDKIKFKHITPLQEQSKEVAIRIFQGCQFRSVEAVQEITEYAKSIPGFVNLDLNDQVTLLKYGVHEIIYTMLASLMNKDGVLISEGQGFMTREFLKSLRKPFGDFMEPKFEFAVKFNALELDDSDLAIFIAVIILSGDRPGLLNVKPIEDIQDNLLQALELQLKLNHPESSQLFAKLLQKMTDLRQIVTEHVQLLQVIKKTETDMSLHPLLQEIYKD
# Experimental details: PPAR activation: Gal4-hPPARγ chimera luciferase transactivation in COS-7 cells, Method 2
# Assay type: cell-based
# Test parameters: Method 2; COS-7, 24 h, 1% Ultroser; read-out: hPPARgamma EC50
Group membership follows EC50 per the scheme bottom = under 1000 nM, middle = from 1000 nM up to 2000 nM, top = 2000 nM and over

Please review the following examples before continuing.
compound="CC(C)(Oc1ccc(CCC(OCc2ccccc2)c2ccc(-c3ccc(C(F)(F)F)cc3)s2)c(F)c1F)C(=O)O (stereo not drawn)" class_name=top
compound="CCC(Oc1ccc(CCC(O)c2ccc(-c3ccc(C(F)(F)F)cc3)s2)cc1F)C(=O)O (stereo not drawn)" class_name=top

# bin label for CCOC(CCc1ccc(OC(C)(C)C(=O)O)c(Cl)c1Cl)c1ccc(-c2ccc(C(F)(F)F)cc2)s1 (stereo not drawn)
middle

# bin label for "CC(C)(Oc1ccc(CCC(=O)c2ccc(-c3ccccc3)s2)c(Cl)c1Cl)C(=O)O"
middle

# bin label for CC(C)(Oc1ccc(CCC(OCc2ccccc2)c2ccc(-c3ccc(C(F)(F)F)cc3)s2)c(Cl)c1Cl)C(=O)O (stereo not drawn)
middle

# bin label for CC(C)(Oc1ccc(CCC(OCC2CCCCC2)c2ccc(-c3ccc(C(F)(F)F)cc3)s2)c(Cl)c1Cl)C(=O)O (stereo not drawn)
bottom

# bin label for "Cc1cc(CCC(=O)c2ccc(-c3ccc(C(F)(F)F)cc3)s2)ccc1OC(C)(C)C(=O)O"
bottom
